Data origin, for the record: ChEMBL document CHEMBL1157642

Molecular target: Adenosine receptor A1 (Homo sapiens)
Sequence (P30542 whole entry): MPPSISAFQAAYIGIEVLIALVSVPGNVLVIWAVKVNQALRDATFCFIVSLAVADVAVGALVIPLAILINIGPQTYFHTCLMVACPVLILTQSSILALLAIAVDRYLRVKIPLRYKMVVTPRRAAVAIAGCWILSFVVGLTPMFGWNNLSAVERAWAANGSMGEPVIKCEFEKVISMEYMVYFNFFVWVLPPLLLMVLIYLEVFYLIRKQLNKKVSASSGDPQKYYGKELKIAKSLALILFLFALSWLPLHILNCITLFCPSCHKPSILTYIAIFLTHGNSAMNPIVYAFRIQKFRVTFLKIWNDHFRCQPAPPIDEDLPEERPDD
Assay: Binding affinity to human adenosine A1 receptor
measureName: pKi
# pKi: negative log10 of molar concentration; output just the value

Input line: Bench note: what pKi did OC1CCC(Nc2nc(-c3ccccc3)nc3[nH]ccc23)CC1 (centres undefined) show?
Output line: 9.00

Input line: Item: O=C(O)CCCn1nc(-c2c(-c3ccccc3)nn3ccccc23)ccc1=O
Output line: 7.92
